- testProtocol: Clearance in cynomolgus monkey at 3 mg/kg, iv
- Format: ADME, organism-based, Macaca fascicularis
- experimentalSetup: in vivo
reportedEndpoint: clearance (mL/min/kg)

>  <smi>
C/C(=C\COc1ccccc1CN(C)C(=O)c1ccc(-c2ccco2)cc1)CCC(=O)O

>  <reportedEndpoint>
clearance

>  <unitDescriptor>
mL/min/kg

>  <resultValue>
8

$$$$

---

- testProtocol: Half life in CD-1 mouse at 3 mg/kg, iv
- Type: ADME, organism-based
- experimentalSetup: in vivo
Would you mind labelling by half-life? At or over 2 h is Satisfied, under is Not satisfied.

>  <molecule>
CN(Cc1ccccc1OCCC[C@@H]1C[C@H]1C(=O)O)C(=O)c1ccc(-c2ccco2)cc1 (racemic)

>  <assignedLabel>
Satisfied

$$$$
>  <molecule>
CN(Cc1ccccc1OCCCCC(C)(C)C(=O)O)C(=O)c1ccc(-c2ccco2)cc1

>  <assignedLabel>
Satisfied

$$$$
>  <molecule>
CN(Cc1ccccc1OCCC/C=C/C(=O)O)C(=O)c1ccc(-c2ccco2)cc1

>  <assignedLabel>
Not satisfied

$$$$
>  <molecule>
C/C(=C\C(=O)O)CCCOc1ccccc1CN(C)C(=O)c1ccc(-c2ccco2)cc1

>  <assignedLabel>
Not satisfied

$$$$
>  <molecule>
C/C(=C\CCCOc1ccccc1CN(C)C(=O)c1ccc(-c2ccco2)cc1)C(=O)O

>  <assignedLabel>
Not satisfied

$$$$
>  <molecule>
CC(CCOc1ccccc1CN(C)C(=O)c1ccc(-c2ccco2)cc1)CCC(=O)O (configuration not stated)

>  <assignedLabel>
Not satisfied

$$$$
>  <molecule>
CN(Cc1ccccc1OCCCCCC(=O)O)C(=O)c1ccc(-c2ccco2)cc1

>  <assignedLabel>
Not satisfied

$$$$
>  <molecule>
C[C@H](CCCOc1ccccc1CN(C)C(=O)c1ccc(-c2ccco2)cc1)CC(=O)O

>  <assignedLabel>
Satisfied

$$$$
>  <molecule>
C/C(=C\COc1ccccc1CN(C)C(=O)c1ccc(-c2ccco2)cc1)CCC(=O)O

>  <assignedLabel>
Satisfied

$$$$
>  <molecule>
CN(Cc1ccccc1OCCC[C@@H]1C[C@@H]1C(=O)O)C(=O)c1ccc(-c2ccco2)cc1 (racemic)

>  <assignedLabel>
Satisfied

$$$$
>  <molecule>
CC(CCCCOc1ccccc1CN(C)C(=O)c1ccc(-c2ccco2)cc1)C(=O)O (configuration not stated)

>  <assignedLabel>
Satisfied

$$$$
